B1: CPEB3 Ribozyme (parent)
chain: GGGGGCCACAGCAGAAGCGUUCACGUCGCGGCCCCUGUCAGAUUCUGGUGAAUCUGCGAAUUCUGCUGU

# Variants of: B1
# assay-overview: self-cleavage, relative activity (ratio to wild type); higher = more cleavage; co-transcriptional

mutation-id: G4A U62C
self-cleavage: 0.587

mutation-id: G37A G47A
self-cleavage: 0.312

mutation-id: G19U C39G
self-cleavage: 0.264

mutation-id: G19C U53G
self-cleavage: 0.158

mutation-id: G58C U62C
self-cleavage: 0.902

mutation-id: A42U C54A
self-cleavage: 0.834

mutation-id: C29G U62C
self-cleavage: 0.251

mutation-id: U43C U55C
self-cleavage: 0.455

mutation-id: C22G A42C
self-cleavage: 0.23

mutation-id: G4A C24G
self-cleavage: 0.177

mutation-id: G11U A13U
self-cleavage: 0.184

mutation-id: A15G U55C
self-cleavage: 0.869

mutation-id: C18A G58A
self-cleavage: 0.155

mutation-id: A42G A51U
self-cleavage: 0.799

mutation-id: C35A U38C
self-cleavage: 0.256

mutation-id: A42C G50C
self-cleavage: 0.858

mutation-id: G11C C34G
self-cleavage: 0.578

mutation-id: C7G A51U
self-cleavage: 0.34

mutation-id: G50U A51U
self-cleavage: 0.995

mutation-id: G17U C63A
self-cleavage: 0.182

mutation-id: U20A C22A
self-cleavage: 0.152

mutation-id: G5A C39G
self-cleavage: 0.752

mutation-id: U49G C57A
self-cleavage: 0.425

mutation-id: G17A C34A
self-cleavage: 0.2

mutation-id: A13U C54U
self-cleavage: 0.729

mutation-id: C18U C27G
self-cleavage: 0.194

mutation-id: C32U G37U
self-cleavage: 0.292

mutation-id: G5C G41C
self-cleavage: 0.188

mutation-id: C12G G31U
self-cleavage: 0.206

mutation-id: G58U U67C
self-cleavage: 1.01

mutation-id: C18A G50C
self-cleavage: 0.208

mutation-id: G4C U62G
self-cleavage: 0.311

mutation-id: G17U U64C
self-cleavage: 0.251

mutation-id: C29G U64C
self-cleavage: 0.369

mutation-id: G25C C35U
self-cleavage: 0.177

mutation-id: U38G A59C
self-cleavage: 0.232

mutation-id: U49C G68A
self-cleavage: 1.01

mutation-id: C7U C66G
self-cleavage: 0.898

mutation-id: C33U U64G
self-cleavage: 0.941

mutation-id: C12G C33G
self-cleavage: 0.316

mutation-id: G17A A52U
self-cleavage: 0.519

mutation-id: A40C U53C
self-cleavage: 0.219

mutation-id: U43C U62C
self-cleavage: 0.86

mutation-id: A8C G28U
self-cleavage: 0.154

mutation-id: A15U U67A
self-cleavage: 0.889

mutation-id: U53A G58A
self-cleavage: 0.919

mutation-id: C12G G17C
self-cleavage: 0.0979

mutation-id: G1A C35U
self-cleavage: 0.0752

mutation-id: G25A U64G
self-cleavage: 0.185

mutation-id: C39G G47A
self-cleavage: 0.996

mutation-id: G3A G17U
self-cleavage: 0.0783

mutation-id: G58C G65A
self-cleavage: 0.844

mutation-id: G47U G48C
self-cleavage: 1.02

mutation-id: C12A U20A
self-cleavage: 0.0992

mutation-id: U49C C63G
self-cleavage: 0.832

mutation-id: C22G C27A
self-cleavage: 0.149

mutation-id: C24U G25C
self-cleavage: 0.105

mutation-id: U21C
self-cleavage: 0.92

mutation-id: G19A U55G
self-cleavage: 0.099

mutation-id: C7U U69A
self-cleavage: 1.02

mutation-id: G14C C66U
self-cleavage: 0.358

mutation-id: A51C U64A
self-cleavage: 0.866
